System: Vero E6 infected with SARS-CoV-2
Assay: inhibition of SARS-CoV-2 cytopathic effect; higher = more antiviral protection, active = above 15
Settings: 10000 nM; 48 h
readout: inhibition of SARS-CoV-2 cytopathic effect (%)

compound	observed.value
CC(C)OC(=O)C1=CN(C(=O)c2ccc(F)c(F)c2)CC(C)(C)c2c1[nH]c1ccccc21	-3.87
C[C@@H](Oc1ccc2[nH]nc(/C=C/c3cnn(CCO)c3)c2c1)c1c(Cl)cncc1Cl	-14.7
Nc1nc(=O)n([C@@H]2CS[C@H](CO)O2)cc1F [emtricitabine]	-0.34
COC(=O)c1ccc2c(c1)NC(=O)/C2=C(\Nc1ccc(N(C)C(=O)CN2CCN(C)CC2)cc1)c1ccccc1 [nintedanib]	0
CC(C)(C)c1ccc(-c2nc3ccccc3[nH]2)cc1	4.75
C/C=C/C[C@@H](C)C(=O)[C@H]1C(=O)N[C@@H](C(C)C)C(=O)N(C)CC(=O)N(C)[C@@H](CC(C)C)C(=O)N[C@@H](C(C)C)C(=O)N(C)[C@@H](CC(C)C)C(=O)N[C@@H](C)C(=O)N[C@H](C)C(=O)N(C)[C@@H](CC(C)C)C(=O)N(C)[C@@H](CC(C)C)C(=O)N(C)[C@@H](C(C)C)C(=O)N1C [valspodar]	8.33
COc1cc2c(NC3CCN(C)CC3)nc(N3CCCN(C)CC3)nc2cc1OCCOCCN(C)C	-3.09
C=CC(=O)Nc1cccc(Nc2nc(Nc3ccc(N4CCN(C(C)=O)CC4)cc3OC)ncc2C(F)(F)F)c1 [rociletinib]	-11.9
N#CC1(c2ccc(NC(=O)c3cccnc3NCc3ccncc3)cc2)CCCC1 [apatinib]	-0.18
N[C@@H](CSCCCO)C(=O)O [fudosteine]	-1.74
C=C[C@]1(C)C[C@@H](OC(=O)CS[C@@H]2C[C@H]3CC[C@@H](C2)N3C)[C@]2(C)[C@H](C)CC[C@]3(CCC(=O)[C@H]32)[C@@H](C)[C@@H]1O [retapamulin]	-0.87
CN(C)c1nc(N)c(C(=O)Nc2cccnc2)nc1Cl	0.82
CN(C)c1ccc(-c2nc3c(N4CCN(CC(=O)Nc5nccs5)CC4)c(Cl)cnc3[nH]2)cc1	13.9
O=C1C[C@@H](c2ccc(O)cc2)Oc2cc(O)ccc21	12
COc1cccc(C(=O)CCN[C@@H](C)[C@H](O)c2ccccc2)c1 [oxyfedrine]	1.77
CN(c1nccc(=O)[nH]1)C1CCN(c2nc3ccccc3n2Cc2ccc(F)cc2)CC1 [mizolastine]	-1.33
CCCCN1CCC(CCC(=O)c2cc(Cl)c(N)cc2OC)CC1	-3.77
CCC(=O)NCC[C@@H]1CCc2ccc3c(c21)CCO3 [ramelteon]	-10.8

---

System: Vero E6 infected with SARS-CoV-2
Assay: inhibition of SARS-CoV-2 cytopathic effect; higher = more antiviral protection, active = above 15
Settings: 833.33 nM; 48 h
Form field: inhibition of SARS-CoV-2 cytopathic effect (one value per entry).
readout: inhibition of SARS-CoV-2 cytopathic effect (%)

                                   molecule  observed_value
0  O=C(COc1ccc(Cl)cc1)N[C@H]1CC[C@H](NC(=O)COc2ccc(Cl)cc2)CC1            6.09
1                  O=NN(CCCl)C(=O)NC1CCCCC1            2.26
2                   CCN(CC)C(=O)N1CCN(C)CC1            0.55
3  COc1cc2c(cc1OC)C(=O)C(CC1CCN(Cc3ccccc3)CC1)C2 (stereo not given)           -1.28
4  Cc1ccc(/N=C/N(C)/C=N/c2ccc(C)cc2C)c(C)c1           -1.85
5  CC[C@@]1(O)C(=O)OCc2c1cc1n(c2=O)Cc2cc3c(CN(C)C)c(O)ccc3nc2-1           -6.88
6  CC(=O)OC/C=C(C)/C=C/C=C(C)/C=C/C1=C(C)CCCC1(C)C [retinyl-acetate]            1.34
7  CC(C)=CC[C@@H](O)C1=CC(=O)c2c(O)ccc(O)c2C1=O            3.65
8          c1coc(-c2nnc3sc(C4CCCCC4)nn23)c1           -1.37
9          Cc1ccc(-c2cn3c4c(sc3n2)CCCC4)cc1            0.25

---

Tested on: Vero E6 infected with SARS-CoV-2
Experiment: morphology score (similarity to uninfected cells); higher = more like uninfected cells
Settings: 24 h
Form field: morphology score (one value per entry).
readout: morphology score

molecule	readout	observed.value
CCCC(=O)OCOC(=O)C1=C(C)NC(C)=C(C(=O)OC)C1c1cccc(Cl)c1Cl (stereo unspecified) [cleviprex] (10 µM)	morphology score	0.0656
NCCCCN=C(N)N [agmatine] (10 µM)	morphology score	0.0302
CC(=O)NS(=O)(=O)c1ccc(N)cc1 [sulfacetamide] (10 µM)	morphology score	0.147
CCC(=O)N1CCN(c2ccc(-n3c(=O)ccc4cnc5ccc(-c6cnc7ccccc7c6)cc5c43)cc2C(F)(F)F)CC1 [torin-1] (10 µM)	morphology score	-0.0739
CC1CCN(C(c2ccc(F)cc2)c2ccc(C(C)C(=O)O)cc2-c2ccc(C(F)(F)F)cc2)CC1 (stereo unspecified) (10 µM)	morphology score	0.0608
Cc1cnc(CNC(=O)c2c(=O)c3ccc(N4CCCN(C)CC4)nc3n3c2sc2ccccc23)cn1 (0.833333 µM)	morphology score	0.0323
O=C(O)[C@H]1CCCN(CCC=C(c2ccccc2)c2ccccc2)C1 (racemic) (10 µM)	morphology score	0.0757
CC(C)CC(=O)Nc1n[nH]c2c1CN(C(=O)C1CCN(C)CC1)C2(C)C (10 µM)	morphology score	0.099
OC[C@H]1O[C@@H](n2cnc3c(NC4CCCC4)ncnc32)[C@H](O)[C@@H]1O [N6-cyclopentyladenosine] (10 µM)	morphology score	-0.0139
O=C(Nc1cccnn1)N1CCC(=Cc2cccc(Oc3ccc(C(F)(F)F)cn3)c2)CC1 (10 µM)	morphology score	0.00817
N[C@@H](CCC(=O)N[C@@H](CS)C(=O)NCC(=O)O)C(=O)O [glutathione] (10 µM)	morphology score	-0.0349
CN[C@@H](C)[C@H](O)c1ccccc1 [ephedrine] (10 µM)	morphology score	-0.038
COc1ccc(C2C(=O)c3ccccc3C2=O)cc1 [anisindione] (10 µM)	morphology score	-0.177
O=[N+]([O-])c1ncc[nH]1 [azomycin-(2-nitroimidazole)] (10 µM)	morphology score	-0.138
NC(=O)c1ncn([C@@H]2O[C@H](CO)[C@@H](O)[C@H]2O)c1N [acadesine] (10 µM)	morphology score	0.00261
CN1CC[C@@H](NC(=O)Nc2ccc(C#N)cc2)C[C@@H]1c1nc2ccccc2[nH]1 [glasdegib] (10 µM)	morphology score	0.066
CN[C@@H]1[C@@H](O)[C@@H](O[C@@H]2[C@@H](O)[C@H](O[C@H]3OC(CN)=CC[C@H]3N)[C@@H](N)C[C@H]2N)OC[C@]1(C)O [Sisomicin (sulfate)] (10 µM)	morphology score	0.222
Cn1cc(-c2ccc3ncc(Cc4ccc5ncccc5c4)n3n2)cn1 (10 µM)	morphology score	0.442
N#Cc1cn([C@@H]2O[C@H](CO)[C@@H](O)[C@H]2O)c2ncnc(N)c12 [toyocamycin] (0.833333 µM)	morphology score	-0.0555
C[C@@H]1NC(=O)[C@@H](N)CNC(=O)[C@H](C2CCNC(=N)N2)NC(=O)/C(=C/NC(N)=O)NC(=O)[C@H](CNC(=O)CC(N)CCCN)NC1=O.N=C1NCC[C@H]([C@@H]2NC(=O)/C(=C/NC(N)=O)NC(=O)[C@H](CNC(=O)C[C@@H](N)CCCN)NC(=O)[C@H](CO)NC(=O)[C@@H](N)CNC2=O)N1 [capreomycin] (10 µM)	morphology score	0.148
CC(=O)NC1N=C(c2ccccc2)c2ccccc2NC1=O (stereo unspecified) (10 µM)	morphology score	0.189
COC(=O)C1=C(C)NC(C)=C(C(=O)OCCN(C)Cc2ccccc2)C1c1cccc([N+](=O)[O-])c1 (stereo unspecified) [nicardipine] (10 µM)	morphology score	0.0181
C=CC1=C(C(=O)O)N2C(=O)[C@@H](NC(=O)/C(=N\O)c3csc(N)n3)[C@H]2SC1 [cefdinir] (10 µM)	morphology score	-0.118
c1cnc(NCc2ccc(CNc3ncccn3)cc2)nc1 (10 µM)	morphology score	0.18
O=S(=O)(N[C@H](CO)C(C(F)(F)F)C(F)(F)F)c1ccc(Cl)s1 [begacestat] (10 µM)	morphology score	0.00774
CCn1nc(C(=O)O)c(=O)c2cc3c(cc21)OCO3 [cinoxacin] (10 µM)	morphology score	-0.0392
C#C[C@]1(O)CC[C@H]2[C@@H]3CCc4cc(OC)ccc4[C@H]3CC[C@@]21C [mestranol] (10 µM)	morphology score	-0.00302
C[C@]12CC[C@H]3[C@@H](CC[C@@]45O[C@@H]4C(O)=C(C#N)C[C@]35C)[C@@H]1CC[C@@H]2O [trilostane] (10 µM)	morphology score	-0.0579
O=C(OCCOCCO)c1ccccc1Nc1cccc(C(F)(F)F)c1 [etofenamate] (10 µM)	morphology score	-0.0601
CN1CC(O)C2=C/C(=N/NC(N)=O)C(=O)C=C21 (stereo unspecified) [carbazochrome] (10 µM)	morphology score	0.0013
Cc1cc(-c2cc(O)ccc2Cl)cc2nnc(Nc3ccc(OCCN4CCCC4)cc3)nc12 (0.833333 µM)	morphology score	-0.04
